experiment description: Cytotoxicity against African green monkey Vero cells infected with Tacaribe virus assessed as reduction in cell viability by neutral red dye based analysis
Format: toxicity
recorded conditions: chlorocebus sabaeus
metric: CC50 (µM)
Record the value in µM, omitting the unit from your answer.

Req: May I ask what CC50 has been recorded for Nc1ncnn2c([C@@H]3N[C@H](CO)[C@@H](O)[C@H]3O)ccc12 ?
Resp: 6.6

###

experiment description: Cytotoxicity against African green monkey Vero 76 cells infected with MERS-CoV assessed as reduction in cell viability by visual analysis
Type: toxicity, cell-based
recorded conditions: chlorocebus sabaeus
metric: CC50 (µM)
Record the value in µM, omitting the unit from your answer.

Req: May I ask what CC50 has been recorded for Nc1ncnn2c([C@@H]3N[C@H](CO)[C@@H](O)[C@H]3O)ccc12 ?
Resp: 10

###

experiment description: Cytotoxicity against African green monkey Vero E6 cells infected with Lymphocytic choriomeningitis virus assessed as reduction in cell viability
Assay type: toxicity, cell-based, Vero C1008
recorded conditions: chlorocebus sabaeus
metric: CC50 (µM)
Record the value in µM, omitting the unit from your answer.

Req: May I ask what CC50 has been recorded for Nc1ncnn2c([C@@H]3N[C@H](CO)[C@@H](O)[C@H]3O)ccc12 ?
Resp: 12

###

Tested on: Middle East respiratory syndrome-related coronavirus
experiment description: Antiviral activity against MERS-CoV infected in African green monkey Vero 76 cells assessed as reduction in virus-induced cytopathic effect measured after 15 to 30 mins by neutral red dye based analysis
Format: functional, organism-based
metric: EC50 (µM)
Record the value in µM, omitting the unit from your answer.

Req: Can you look up EC50 on Middle East respiratory syndrome-related coronavirus for Nc1ncnn2c([C@@H]3N[C@H](CO)[C@@H](O)[C@H]3O)ccc12 ?
Resp: 32

Req: Can you look up EC50 on Middle East respiratory syndrome-related coronavirus for CC(C)OC(=O)[C@H](C)N[P@](=O)(OC[C@H]1N[C@@H](c2ccc3c(N)ncnn23)[C@H](O)[C@@H]1O)Oc1ccccc1 ?
Resp: 13

###

experiment description: Selectivity index, ratio of CC50 for cytotoxicity against dog MDCK cells infected with Influenza A virus H3N2 assessed as reduction in cell viability by visual analysis to EC90 for antiviral activity against Influenza A virus H3N2 infected in dog MDCK cells assessed as reduction in viral yield by visual analysis
Format: toxicity, cell-based
metric: selectivity ratio
Keep it simple and answer with nothing but the number.

Req: May I ask what selectivity ratio has been recorded for Nc1ncnn2c([C@@H]3N[C@H](CO)[C@@H](O)[C@H]3O)ccc12 ?
Resp: 64

###

System: Yellow fever virus
experiment description: Antiviral activity against Yellow fever virus infected in human Huh-7 cells assessed as reduction in virus-induced cytopathic effect measured after 15 to 30 mins by neutral red based analysis
Format: functional, organism-based
metric: EC50

Req: May I ask what EC50 has been recorded for CC(C)OC(=O)[C@H](C)N[P@](=O)(OC[C@H]1N[C@@H](c2c[nH]c3c(N)ncnc23)[C@H](O)[C@@H]1O)Oc1ccccc1 ?
Resp: > 100 µM

Req: May I ask what EC50 has been recorded for CC(C)OC(=O)[C@H](C)N[P@](=O)(OC[C@H]1N[C@@H](c2ccc3c(N)ncnn23)[C@H](O)[C@@H]1O)Oc1ccccc1 ?
Resp: 3.6 µM

Req: May I ask what EC50 has been recorded for Nc1ncnn2c([C@@H]3N[C@H](CO)[C@@H](O)[C@H]3O)ccc12 ?
Resp: 0.5 µM

Req: May I ask what EC50 has been recorded for Nc1ncnc2c([C@@H]3N[C@H](CO)[C@@H](O)[C@H]3O)c[nH]c12 [GALIDESIVIR] ?
Resp: 18 µM
